Target: cannabinoid CB1 receptor (Homo sapiens, UniProt P21554)
Construct: expressed in transfected cells; host or cells: SK-N-MC cells, pcDNA3 CB-1 (human), semi-purified membrane pellet
Sequence (P21554 whole entry): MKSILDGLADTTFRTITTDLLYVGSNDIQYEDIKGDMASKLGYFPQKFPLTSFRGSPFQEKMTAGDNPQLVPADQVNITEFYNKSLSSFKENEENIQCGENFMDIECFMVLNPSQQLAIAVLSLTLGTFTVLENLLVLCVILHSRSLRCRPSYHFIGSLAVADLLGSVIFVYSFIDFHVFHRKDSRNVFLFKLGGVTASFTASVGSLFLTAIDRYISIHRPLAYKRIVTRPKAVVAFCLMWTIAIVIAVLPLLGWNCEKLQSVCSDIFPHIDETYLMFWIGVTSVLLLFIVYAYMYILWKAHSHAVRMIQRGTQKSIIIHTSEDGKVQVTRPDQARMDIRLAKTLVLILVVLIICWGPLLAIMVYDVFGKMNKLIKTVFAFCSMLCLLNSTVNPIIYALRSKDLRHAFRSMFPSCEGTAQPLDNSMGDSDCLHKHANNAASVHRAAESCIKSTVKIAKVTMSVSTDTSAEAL
Assay: Binding assay for CB1, [3H]-CP-55,940 displacement on membranes of transfected SK-N-MC cells
Settings: test concentration of 0.2 μM; read-out: Cannabinoid CB 1 Receptor Binding Inhibition (%)
// reported inhibition at 0.2 µM for each item listed
The response must be a number in % with no trailing unit.

{"Compound": "O=C(c1nn(-c2ccc(Cl)cc2Cl)c2c1CCNC/C2=C\\c1ccc(F)cc1)N1CCCCC1 [Cpd 5]", "Target": "cannabinoid CB1 receptor (Homo sapiens, UniProt P21554)", "inhibition at 0.2 µM / %": 16}
{"Compound": "COC(=O)N1CCc2c(C(=O)NN3CCCCC3)nn(-c3ccc(Cl)cc3Cl)c2/C(=C/c2ccc(F)cc2)C1 [Cpd 6]", "Target": "cannabinoid CB1 receptor (Homo sapiens, UniProt P21554)", "inhibition at 0.2 µM / %": 39}
{"Compound": "CC(C)(C)OC(=O)N1CCc2c(C(=O)NN3CCCCC3)nn(-c3ccc(Cl)cc3Cl)c2/C(=C/c2ccc(F)cc2)C1 [Cpd 2]", "Target": "cannabinoid CB1 receptor (Homo sapiens, UniProt P21554)", "inhibition at 0.2 µM / %": 54}

Task: Param item = CC(C)(C)OC(=O)N1CCc2c(C(=O)N3CCCCC3)nn(-c3ccc(Cl)cc3Cl)c2/C(=C/c2ccc(F)cc2)C1 [Cpd 1] ; retrieve measured inhibition at 0.2 µM.
Result: 27
